# test-summary: qHTS assay to identify small molecule antagonists of the estrogen receptor beta (ER-beta) signaling pathway - cell viability counter screen (AID 1259382); further: nearly all actives have a fitted effect of over 55% in size
# assay-conditions: ER-beta-UAS-bla HEK293T viability, CellTiter-Glo luminescence, 16 h; series mostly up to 92.4 µM
Results filed as inconclusive are left out. The source made the active and inactive calls. The call rests on the fitted dose curve; in most records, active means well fitted cell-killing curve with a large enough effect in the repeat runs; inconclusive means weak or mixed curves; inactive means flat fitted curve, though single readings scatter.
Just give me one of these, please: active, inactive

NC1(c2ccc(-c3nc4ccn5c(=O)[nH]nc5c4cc3-c3ccccc3)cc2)CCC1 | active
CC(=O)O[C@@H]1C[C@@H]2CC[C@@]1(C)C2(C)C | inactive
CCOCN(C(=O)CS(=O)(=O)O)c1c(C)cccc1CC | inactive

Each compound tested received a call. Report the one for C[Si](C)(C)Cl .
inactive

====

# test-summary: Human pregnane X receptor (PXR) small molecule agonists, qHTS cell viability counter screen (AID 1346977); further: on the % scale 0 is the no-effect control and ±100 the full control effect; nearly all actives have a fitted effect of over 50% in size
# assay-conditions: PXR-Luc HepG2 viability, CellTiter-Fluor, 24 h; series mostly up to 92.4 µM
Inconclusive results are not listed. Activity calls are given as the source filed them. Calls follow the shape of the dose curve; as a rule, active = well fitted cell-killing curve with a large enough effect in the repeat runs; inconclusive = weak or mixed curves, or effect the other way; inactive = flat fitted curve, though single readings scatter.
Can you answer with just one of these options? active, inactive

Clc1ccc(C(c2ccccc2Cl)C(Cl)Cl)cc1 (stereo not given) | inactive

Which outcome did this test record for the molecule CCCCCCCCCCc1ccccc1 ?
inactive

Repeat for the following molecule: O=c1cccc[nH]1
inactive

Try the molecule CC(=O)Nc1ccc(O)cc1
inactive

Entry to check: CCc1cccc(C)c1
inactive

// repeat for C=CC(=O)OCCN(CC)CC and report
inactive

====

# test-summary: qHTS assay to identify small molecule agonists of the TGF-beta/Smad signaling pathway (AID 1346859); further: on the % scale 0 is the no-effect control and ±100 the full control effect
# assay-conditions: SBE-bla HEK293T, TGF-beta/Smad beta-lactamase reporter, 5 h; series mostly up to 76.8 µM
Inconclusive results are not listed. Calls of active or inactive are those of the source. Calls follow the shape of the dose curve; as a rule, active = well fitted activation curve with a large enough effect in the signal ratio in the repeat runs (not every such curve was filed as active); inconclusive = weak or mixed curves; inactive = flat fitted curve, though single readings scatter; the % refers to the signal ratio.
outcome-measure: activation

Completed entries (count: 5):
CC(=O)c1ccccc1N | inactive
CCCC(=O)OCC(COC(=O)CCC)OC(=O)CCC | inactive
CCNc1nc(NC(C)CC)nc(OC)n1 (stereo unspecified) | inactive
COC(=O)C1=C(C)NC(C)=C(C(=O)OCCCN2CCC(c3ccccc3)(c3ccccc3)CC2)C1c1cccc([N+](=O)[O-])c1 (stereo unspecified) | inactive
COc1cc(C(C)C)c2c(c1)S(=O)(=O)N(COc1cc(=O)n3cccc(OCCN4CCCCC4)c3n1)C2=O | -2.24% [at 15.8 µM] (inactive)

Field: next compound
Which activation value belongs to CCCCCCCCCCCCCCCCCO ?
-0.867% [at 15.8 µM] (inactive)

====

# measured-on: Cytochrome P450 2C19 (Homo sapiens)
# test-summary: Cytochrome P450 Family 2 Subfamily C Member 19 (CYP2C19) small molecule antagonists: luciferase reporter qHTS assay (AID 1671197); further: nearly all actives have a fitted effect of over 65% in size
# assay-conditions: P450-Glo CYP2C19 enzyme, luciferin luminescence, 1 h; series mostly up to 115 µM
Results filed as inconclusive are left out. Calls of active or inactive are those of the source. Calls follow the shape of the dose curve; as a rule, active = well fitted inhibition curve with a large enough effect in the repeat runs; inconclusive = weak or mixed curves; inactive = no such curve, though single readings can be large or run the other way.
Choose the fitting class; nothing outside label 1 = active, label 0 = inactive is accepted.

Please review the following examples before continuing.
CC(COC(=O)c1ccccc1)OC(=O)c1ccccc1 (stereo not drawn) | label 1
Cc1c(C)n(Cc2ccccc2)c2ccc(C(=O)OCCN(C)C)cc12 | label 1
CC(=O)OC1CCCCC1 | label 0
CC(NCCC(c1ccccc1)c1ccccc1)c1ccccc1 (stereo not drawn) | label 1
C=CC(=O)OCCOCC(CC)(COCCOC(=O)C=C)COCCOC(=O)C=C | label 1

What was the test verdict on CCC(=O)OCCc1ccccc1 ?
label 0

CCCCCCCCCC(=O)N(C)C , same question.
label 1

Likewise for COc1cc(C=C2CCC/C(=C\c3ccc(O)c(OC)c3)C2=O)ccc1O ?
label 1

And CN(C)CCCN1c2ccccc2Sc2ccc(C(F)(F)F)cc21 ?
label 1

Do the same for COc1cccc(CCc2ccccc2OCC(CN(C)C)OC(=O)CCC(=O)O)c1 (stereo not drawn) please
label 1

Same lookup for COc1ccccc1C=O , please.
label 0

Also CCCCCCS , if possible.
label 0

Param item: C=CC(C)C#N (stereo not drawn)
label 0

Follow-up entry: CCCCOCC
label 0

# iterate: CCc1cccc(C)c1
label 0

Same for CO[C@H]1C=CO[C@@]2(C)Oc3c(C)c(O)c4c(O)c(cc(O)c4c3C2=O)NC(=O)/C(C)=C\C=C/[C@H](C)[C@H](O)[C@@H](C)[C@@H](O)[C@@H](C)[C@H](OC(C)=O)[C@@H]1C
label 1

Note, next up: CCCCCCCCCCCCCCNCCO
label 0

Then this molecule: CCCCCCCC(C)=O
label 0

Another molecule to look at: C=CC(C)(CCC=C(C)C)OC(=O)/C=C/c1ccccc1 (stereo not drawn)
label 1

// same read-out, input: Cc1c(C(=O)O)cccc1[N+](=O)[O-]
label 0

Consider next the molecule Cc1ccc(-n2[nH]c(C)c(N=Nc3cccc(-c4cccc(C(=O)O)c4)c3O)c2=O)cc1C in the same way.
label 0

Lookup CC(C)c1ccccc1N
label 1

Then this molecule: Cn1cnc2ncnc(N)c21
label 0
